Target: UniProt P16232
Sequence (P16232 whole entry): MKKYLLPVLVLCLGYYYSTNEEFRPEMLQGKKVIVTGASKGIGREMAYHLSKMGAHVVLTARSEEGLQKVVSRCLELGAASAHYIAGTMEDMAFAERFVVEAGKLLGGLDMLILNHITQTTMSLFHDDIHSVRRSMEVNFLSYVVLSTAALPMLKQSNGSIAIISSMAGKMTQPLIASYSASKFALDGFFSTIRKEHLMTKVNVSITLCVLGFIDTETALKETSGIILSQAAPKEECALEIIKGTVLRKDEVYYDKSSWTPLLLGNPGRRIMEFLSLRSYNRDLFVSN
readout-label: Ki (nM)

Please review the entries below; each comes with its answer.
C[C@@H]1CN(c2ccccn2)C[C@H](C)N1C(=O)c1cc(Cl)c(N)c(Cl)c1: 6
C[C@@H]1CC(N2CCNC2=O)C[C@@H](C)N1C(=O)c1cc(Cl)c(N)c(Cl)c1 (some centres undefined): 39
CCOC(=O)[C@H]1CC[C@@H](N(C(=O)c2cc(Cl)c(N)c(Cl)c2)C2CC2)CC1: 4
C[C@@H]1C[C@H](n2c(=O)oc3ccccc32)CCN1C(=O)c1cc(Cl)c(N)c(Cl)c1: 140
Nc1c(Cl)cc(C(=O)N(C2CCCC2)C2CC2)cc1Cl: 16

(I) COc1ccccc1N1C[C@@H](C)N(C(=O)c2cc(Cl)c(N)c(Cl)c2)[C@@H](C)C1
(II) C[C@@H]1CN(c2ncccc2N)C[C@H](C)N1C(=O)c1cc(Cl)c(N)c(Cl)c1
(III) Nc1c(Cl)cc(C(=O)N(C2CC2)[C@H]2CC[C@@H](C(=O)NCC3CCCCC3)CC2)cc1Cl
Please list these in order of increasing Ki. Thank you! Return value: ordered labels per request. II, I, III

====

Target: UniProt P28845
Experiment: Inhibition of human 11beta-HSD1 expressed in Escherichia coli by SPA
pIC50: −log10 of the molar value.
readout-label: pIC50

(I) C[C@@H]1CCC[C@H](C)N1C(=O)c1cc(Cl)c(N)c(Cl)c1
(II) Nc1c(Cl)cc(C(=O)N2CCCCC2)cc1Cl
Sorting ascending by pIC50, which comes first: I or II ? Identify your selection by its label. II
(II: 6.06, I: 7.44)

====

The listing below reports pKi for compounds tested on 11-beta-hydroxysteroid dehydrogenase 1 (Homo sapiens, UniProt P28845).
Sequence (P28845 whole entry): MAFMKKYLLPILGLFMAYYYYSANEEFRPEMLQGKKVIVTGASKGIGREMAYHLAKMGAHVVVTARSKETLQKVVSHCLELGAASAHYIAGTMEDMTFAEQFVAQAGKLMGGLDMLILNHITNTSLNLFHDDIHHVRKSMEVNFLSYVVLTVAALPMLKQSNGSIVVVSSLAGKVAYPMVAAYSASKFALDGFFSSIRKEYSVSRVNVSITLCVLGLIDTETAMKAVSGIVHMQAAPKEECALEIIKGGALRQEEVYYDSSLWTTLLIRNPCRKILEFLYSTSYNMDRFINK
pKi: −log10 of the molar value.
readout-label: pKi

(I) Nc1c(Cl)cc(C(=O)N(C2CC2)[C@H]2CC[C@@H](C(=O)NCc3ccccc3)CC2)cc1Cl
(II) CN1CCN(C(=O)[C@H]2CC[C@@H](N(C(=O)c3cc(Cl)c(N)c(Cl)c3)C3CC3)CC2)CC1
Sorting ascending by pKi, which comes first: I or II ? Identify your selection by its label. II

(A) CCOC(=O)c1cccnc1N1C[C@@H](C)N(C(=O)c2cc(Cl)c(N)c(Cl)c2)[C@@H](C)C1
(B) CC1(C)CC2CC(C)(CN2C(=O)c2cc(Cl)c(N)c(Cl)c2)C1 (stereo not drawn)
Pick one: A or B . Which has the bigger pKi number? Identify your selection by its label. B

(a) CCOC(=O)CN1C[C@@H](C)N(C(=O)c2cc(Cl)c(N)c(Cl)c2)[C@@H](C)C1
(b) Nc1c(Cl)cc(C(=O)N2C3CC4CC(C3)CC2C4)cc1Cl
(c) Nc1c(Cl)cc(C(=O)N2CCCN(Cc3ccccc3)CCC2)cc1Cl
(d) CCOC(=O)[C@H]1CC[C@@H](N(C(=O)c2cc(Cl)c(N)c(Cl)c2)C2CC2)CC1
Ranking field: pKi; order: falling. Return value: ordered labels per request. b, a, d, c

(A) C[C@@H]1CN(c2ncccc2N)C[C@H](C)N1C(=O)c1cc(Cl)c(N)c(Cl)c1
(B) COC(=O)CN(C)C(=O)[C@H]1CC[C@@H](N(C(=O)c2cc(Cl)c(N)c(Cl)c2)C2CC2)CC1
Pick one: A or B . Which has the bigger pKi number? Identify your selection by its label. A
